# testSystem: UniProt Q96RU2
# measurementNotes: Concentration-response biochemical assay confirming initial hits as inhibitors of ubiquitin-specific protease 28 (AID 1645866)
# conditionDescription: purified USP28, ubiquitin-rhodamine fluorescence, 30 min
Calls of active or inactive are those of the source.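 Rule for the calls: active = in confirmatory dose-response testing, peak deubiquitinase inhibition of 30% or more; inactive = the rest.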
Please state which outcome applies, choosing from TRUE = active, FALSE = inactive

Below, 4 molecules whose answers are already recorded.
{"molecule": "COc1ccc(N(CC(=O)NC2CCCCC2)C(=O)c2ccc(-c3ccccc3)[nH]2)cc1OC", "assignedLabel": "TRUE"}
{"molecule": "COc1ccc2nc(SCC(=O)Nc3ccc(NC(C)=O)cc3)c(C)cc2c1", "assignedLabel": "TRUE"}
{"molecule": "COc1ccccc1Nc1ncc(C(=O)NCCc2ccc(Cl)cc2)c2ccccc12", "assignedLabel": "TRUE"}
{"molecule": "CCOc1ccc2nc(NC(=O)C3CCN(S(=O)(=O)c4ccc5c(c4)CC(C)N5C(C)=O)CC3)sc2c1 (stereo not given)", "assignedLabel": "FALSE"}

--- query ---
Qu. For Cc1ccc(C(C)C)cc1OCCOCCN1CCNCC1 , which call appears in the assay record?
Ans. TRUE

---

# testSystem: Ubiquitin carboxyl-terminal hydrolase 28 (Homo sapiens) (UniProt Q96RU2)
# Sequence (Q96RU2 whole entry, looked up): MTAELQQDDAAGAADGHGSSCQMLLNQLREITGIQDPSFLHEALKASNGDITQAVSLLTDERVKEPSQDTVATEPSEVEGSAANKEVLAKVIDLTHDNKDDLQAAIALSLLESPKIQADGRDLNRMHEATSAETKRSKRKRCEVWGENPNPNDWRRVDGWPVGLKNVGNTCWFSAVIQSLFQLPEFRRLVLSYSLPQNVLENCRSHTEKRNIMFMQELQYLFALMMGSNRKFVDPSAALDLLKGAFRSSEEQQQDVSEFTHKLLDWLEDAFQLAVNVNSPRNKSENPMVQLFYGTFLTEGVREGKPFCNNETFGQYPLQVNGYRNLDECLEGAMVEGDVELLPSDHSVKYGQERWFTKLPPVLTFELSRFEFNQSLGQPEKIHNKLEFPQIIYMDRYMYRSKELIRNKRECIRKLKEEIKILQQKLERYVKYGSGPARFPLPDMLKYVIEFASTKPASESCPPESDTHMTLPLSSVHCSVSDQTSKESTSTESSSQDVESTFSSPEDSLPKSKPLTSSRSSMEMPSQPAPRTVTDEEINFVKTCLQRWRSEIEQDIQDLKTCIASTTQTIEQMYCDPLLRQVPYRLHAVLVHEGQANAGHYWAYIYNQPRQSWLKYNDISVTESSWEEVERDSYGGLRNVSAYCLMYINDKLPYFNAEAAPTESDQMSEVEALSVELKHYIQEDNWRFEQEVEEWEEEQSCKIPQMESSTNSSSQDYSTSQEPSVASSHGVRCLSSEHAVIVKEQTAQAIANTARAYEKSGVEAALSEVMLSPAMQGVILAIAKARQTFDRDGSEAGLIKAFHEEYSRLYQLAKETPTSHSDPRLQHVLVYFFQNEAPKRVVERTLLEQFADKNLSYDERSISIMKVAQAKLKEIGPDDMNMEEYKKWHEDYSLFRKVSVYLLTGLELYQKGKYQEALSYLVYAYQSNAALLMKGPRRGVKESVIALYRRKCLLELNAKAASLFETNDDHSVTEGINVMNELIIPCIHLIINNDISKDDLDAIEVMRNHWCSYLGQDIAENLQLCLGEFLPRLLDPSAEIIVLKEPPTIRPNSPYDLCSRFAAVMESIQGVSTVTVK
# measurementNotes: Concentration-response biochemical assay confirming initial hits as inhibitors of ubiquitin-specific protease 28 (AID 1645866)
# conditionDescription: purified USP28, ubiquitin-rhodamine fluorescence, 30 min
Calls of active or inactive are those of the source.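 The calls were made as follows: active = in confirmatory dose-response testing, peak deubiquitinase inhibition of 30% or more; inactive = the rest.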
Your response should consist of one outcome taken from yes (active), no (inactive)

Previously resolved entries follow.
{"compound": "O=C(Nc1ccc(Cl)cc1F)c1cc(-c2ccccn2)n[nH]1", "assignedLabel": "yes"}
{"compound": "CC(=O)Nc1ccc(-n2cnc(C(=O)NC(C)c3ccccc3)c2)nc1 (stereo not given)", "assignedLabel": "yes"}
{"compound": "O=C(Nc1ccccc1)c1nc(-c2cn(Cc3ccc(F)cc3)nn2)no1", "assignedLabel": "yes"}
{"compound": "CCc1ccc(C(C)NC(=O)C2CCN(c3ccc4nncn4n3)CC2)cc1 (stereo not given)", "assignedLabel": "yes"}
{"compound": "Fc1ccc(Nc2nc(Nc3cccc(F)c3)nc3nccnc23)cc1", "assignedLabel": "no"}
{"compound": "O=C1CN(C(=O)COC(=O)CCCN2C(=O)c3cccc4cccc(c34)C2=O)c2ccccc2N1", "assignedLabel": "yes"}
{"compound": "Cc1cnc2nc3c(cc2c1)CN(S(=O)(=O)c1cc(F)ccc1C)CC3", "assignedLabel": "no"}
{"compound": "CN(C(=O)CSc1nnc(-c2cc3ccccc3n2C)o1)c1ccccc1", "assignedLabel": "no"}

Qu. Given N#Cc1ccc(NC(=O)c2ccc(S(=O)(=O)N3CCCCC3)cc2)cc1 , state the outcome it received in this test.
Ans. yes

Qu. Dear colleague, could you share the recorded outcome for CCn1cc2c(n1)c(=O)n(Cc1ccc(C)cc1)c(=O)n2CC(=O)Nc1ccc(F)cc1 when you have a moment?
Ans. yes

---

# testSystem: Ubiquitin carboxyl-terminal hydrolase 28 (Homo sapiens)
# measurementNotes: Concentration-response biochemical assay confirming initial hits as inhibitors of ubiquitin-specific protease 28 (AID 1645866)
# conditionDescription: purified USP28, ubiquitin-rhodamine fluorescence, 30 min
Calls of active or inactive are those of the source.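 Rule for the calls: active = in confirmatory dose-response testing, peak deubiquitinase inhibition of 30% or more; inactive = the rest.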
The reply should be one of these categories: active, inactive

Examples with answers:
{"compound": "CNc1nc2c(c(=O)n1C)CN(C(=O)Nc1cccc3ccccc13)CC2", "assignedLabel": "inactive"}
{"compound": "COc1ccc(-n2nnc3c(SCC(=O)Nc4cc(C)on4)ncnc32)cc1", "assignedLabel": "inactive"}
{"compound": "C=C[C@]1(C)C=C2C(=O)[C@]3(O)OC(=O)[C@@]4(CCCC(C)(C)[C@H]34)[C@@]2(O)CC1", "assignedLabel": "active"}
{"compound": "Cn1c2ccccc2c(=O)c2c(=O)n(Cc3ccccc3)c(-c3ccccc3F)nc21", "assignedLabel": "active"}

Next up:
Qu. // outcome(item) with item = COc1ccccc1CNC(=O)C1CCCN(c2nc3ccsc3c(=O)s2)C1 (stereo not given)
Ans. active
